Tested on: KM12 colon
Assay: NCI tumour cell line growth inhibition, 48 h
PARAMETER_MEASURED: GI50

Below are worked cases with known answers.
# COMPOUND, EXPERIMENTAL_TARGET, GI50
data = [
    ("COc1cc(N=Nc2ccc(O)c3ncccc23)c2ncccc2c1", "KM12 colon", "4.21 µM"),
    ("N=c1c2c(-c3ccccc3)c(-c3ccccc3)n(Cc3ccccc3)c2ncn1C1CCC(O)CC1 (stereo unspecified)", "KM12 colon", "0.327 µM"),
    ("NC1CCN(Cc2ccccc2)CC1", "KM12 colon", "> 100 µM"),
    ("CCn1c(O)c(/C=N/NC(=O)C(C)c2ccc(CC(C)C)cc2)sc1=S (stereo unspecified)", "KM12 colon", "0.371 µM"),
    ("O=c1c(F)cn(Cc2ccc(C34CC5CC(CC(C5)C3)C4)c(O)c2)c(=O)n1Cc1ccc(C23CC4CC(CC(C4)C2)C3)c(O)c1", "KM12 colon", "15.5 µM"),
]

Please examine the following record next.
q: Give reported GI50 value for `CN(C)CC[C@H](CSc1ccccc1)Nc1ccc(S(=O)(=O)NC(=O)c2ccc(N3CCN(Cc4ccccc4-c4ccc(Cl)cc4)CC3)cc2)cc1[N+](=O)[O-]`
a: 3.6 µM

---

System: SK-MEL-2 melanoma
Assay: NCI tumour cell line growth inhibition, 48 h
PARAMETER_MEASURED: TGI

# COMPOUND, VALUE
data = [
    ("COc1cccc(N2C(Cl)C(=O)C2c2c[nH]c3ccccc23)c1 (stereo unspecified)", "> 100 µM"),
    ("CC(=NNC(=S)Nc1ccccc1)c1cccc(C(C)=NNC(=S)Nc2ccccc2)n1", "> 100 µM"),
    ("O=C1c2ccccc2C(=O)N1n1c(Cc2ccc([N+](=O)[O-])cc2)n[nH]c1=O", "> 100 µM"),
    ("CC1(C)[C@@H]2CC[C@@]1(C)CN(CCC[N+](C)(C)C)C2", "> 100 µM"),
    ("O=C(OC1CCC(=C2SCCCS2)[C@H]1C1SCCCS1)c1ccccc1 (stereo partly specified)", "> 100 µM"),
    ("COc1ccc(C(=O)Nc2ccc(O)c(=O)cc2)cc1", "> 100 µM"),
    ("Cc1ccc(S(=O)(=O)n2c3c(c4ccccc42)CCN2C[C@H]([C@H](C)Br)CC[C@@H]32)cc1", "> 100 µM"),
    ("CC12CCC(=O)C[C@H]1CCC(OC=O)C2Br (stereo partly specified)", "> 100 µM"),
    ("Oc1cc(Cl)cc2cccnc12", "> 100 µM"),
    ("COC(=O)C(Cc1ccc2c(c1)CCC2)Cc1ccc2c(c1)CCC2", "> 100 µM"),
]

Next compound, TGI to be filled in.
q: Input `O=C(O)[C@H]1CCCN1CP(=O)(O)CN1CCC[C@@H]1C(=O)O` , output reported TGI.
a: > 100 µM

---

Each entry below lists one item and its recorded TGI value.
Test system: HOP-18 NSCLC
Assay: NCI tumour cell line growth inhibition, 48 h

Please review the following examples before continuing.
# STRUCTURE_SMILES, PARAMETER_MEASURED, VALUE
records = [
    ("CCOC(=O)N[C@H]1CCc2cc(OC)c(OC)c(OC)c2-c2ccc(SC)c(=O)cc21", "TGI", "> 100 µM"),
    ("O=C1OCC/C1=N/O", "TGI", "> 100 µM"),
]

Here's the next entry for you.
q: Please look at this compound and report its TGI: `CN(C)C(=S)/N=c1\sn(C)/c(=N\C(=S)N(C)C)n1C`
a: > 100 µM
